system: FLO-1 (Esophageal Adenocarcinoma); test: Bliss excess, mean over the matrix (fraction); higher = more synergy
Experimental endpoint: Bliss excess

| Molecule | Experimental endpoint | Val |
| --- | --- | --- |
| CN(C)CCCOc1ccc(-c2ccc3ncc4c(c3c2)n(C2CCOCC2)c(=O)n4C)cn1 [AZD0156] + C=CCn1c(=O)c2cnc(Nc3ccc(N4CCN(C)CC4)cc3)nc2n1-c1cccc(C(C)(C)O)n1 [AZD1775] (first compound max 1 µM, partner max 1 µM) | Bliss excess | 0.0285 |
| C[C@@H]1COCCN1c1cc(C2([S@](C)(=N)=O)CC2)nc(-c2ccnc3[nH]ccc23)n1 [AZD6738] + Nc1ccn([C@@H]2O[C@H](CO)[C@@H](O)C2(F)F)c(=O)n1 [Gemcitabine] (first compound max 10 µM, 7x7, partner max 0.3 µM) | Bliss excess | 0.124 |
| COc1cccc(OCCCN)c1-c1cc(Nc2cnc(C#N)cn2)n[nH]1 [Prexasertib] + C[C@@H]1COCCN1C2=NC(=NC(=C2)C3(CC3)[S@](=N)(=O)C)C4=C5C=CNC5=NC=C4 [AZD6738] (first compound max 1 µM, 7x7, partner max 10 µM) | Bliss excess | -0.0233 |
| C=CCn1c(=O)c2cnc(Nc3ccc(N4CCN(C)CC4)cc3)nc2n1-c1cccc(C(C)(C)O)n1 [AZD1775] + C1CN(CCC1(C(=O)N[C@@H](CCO)C2=CC=C(C=C2)Cl)N)C3=NC=NC4=C3C=CN4 [Capivasertib] (first compound max 3 µM, partner max 3 µM) | Bliss excess | -0.0228 |

###

system: EB-3 (Burkitt's Lymphoma); assay: Bliss excess, mean over the matrix (fraction); higher = more synergy

| Molecule | Bliss excess |
| --- | --- |
| CC1(C)CCC(CN2CCN(c3ccc(C(=O)NS(=O)(=O)c4ccc(NCC5CCOCC5)c([N+](=O)[O-])c4)c(Oc4cnc5[nH]ccc5c4)c3)CC2)=C(c2ccc(Cl)cc2)C1 [Venetoclax] + C[C@@H]1COCCN1C2=NC(=NC(=C2)C3(CC3)[S@](=N)(=O)C)C4=C5C=CNC5=NC=C4 [AZD6738] (first compound max 1 µM, 7x7, partner max 10 µM) | -0.0047 |
| O=C(c1cc(Cc2n[nH]c(=O)c3ccccc23)ccc1F)N1CCN(C(=O)C2CC2)CC1 [Olaparib] + COc1nnc2ccc(N3CCC(c4ccc(OCCN5CCN(C)C(=O)[C@H]5C)cc4)CC3)nn12 [AZD5153] (first compound max 10 µM, 7x7, partner max 1 µM) | -0.0549 |
| Cn1cnc2c(F)c(Nc3ccc(Br)cc3Cl)c(C(=O)NOCCO)cc21 [Selumetinib] + CC(C)n1c(=O)n(C)c2cnc3cc(F)c(-c4ccc(OCCCN5CCCCC5)nc4)cc3c21 [AZD1390] (first compound max 10 µM, 7x7, partner max 0.3 µM) | -0.0806 |
| CN(C)CCCOc1ccc(-c2ccc3ncc4c(c3c2)n(C2CCOCC2)c(=O)n4C)cn1 [AZD0156] + O=C(c1cc(Cc2n[nH]c(=O)c3ccccc23)ccc1F)N1CCN(C(=O)C2CC2)CC1 [Olaparib] (first compound max 3 µM, partner max 3 µM) | 0.0234 |
| CN(CCO)CC[C@H](CSc1ccccc1)Nc1ccc(S(=O)(=O)NC(=O)c2ccc(N3CCC([C@@H](O)c4ccccc4-c4ccc(Cl)cc4)CC3)cc2)cc1S(=O)(=O)C(F)(F)F [AZD4320] + C[C@@H](Nc1cc(F)cc(F)c1)c1cc(C(=O)N(C)C)cc2c(=O)cc(N3CCOCC3)oc12 [AZD8186] (first compound max 1 µM, 7x7, partner max 3 µM) | 0.0368 |
| CC1(C)CCC(CN2CCN(c3ccc(C(=O)NS(=O)(=O)c4ccc(NCC5CCOCC5)c([N+](=O)[O-])c4)c(Oc4cnc5[nH]ccc5c4)c3)CC2)=C(c2ccc(Cl)cc2)C1 [Venetoclax] + Cn1cnc2c(F)c(Nc3ccc(Br)cc3Cl)c(C(=O)NOCCO)cc21 [Selumetinib] (first compound max 1 µM, 7x7, partner max 3 µM) | -0.0241 |
| CS(=O)(=O)CCNCc1ccc(-c2ccc3ncnc(Nc4ccc(OCc5cccc(F)c5)c(Cl)c4)c3c2)o1 [Lapatinib] + C[C@@H](Oc1cc(-c2cnn(C3CCNCC3)c2)cnc1N)c1c(Cl)ccc(F)c1Cl [Crizotinib] (first compound max 10 µM, 7x7, partner max 10 µM) | -0.0572 |

###

combination Emax reference
test system: HuO-3N1 (Osteosarcoma); test: combination Emax (second highest fraction inhibited in the dose matrix, 72 h); higher = more inhibition; extreme values may be limits of the assay
Experimental endpoint: combination Emax

| Molecule | Experimental endpoint | Val |
| --- | --- | --- |
| NC1(C(=O)N[C@@H](CCO)c2ccc(Cl)cc2)CCN(c2ncnc3[nH]ccc23)CC1 [Capivasertib] + COc1nnc2ccc(N3CCC(c4ccc(OCCN5CCN(C)C(=O)[C@H]5C)cc4)CC3)nn12 [AZD5153] (first compound max 10 µM, 7x7, partner max 1 µM) | combination Emax | 0.481 |
| NC1(C(=O)N[C@@H](CCO)c2ccc(Cl)cc2)CCN(c2ncnc3[nH]ccc23)CC1 [Capivasertib] + CC(C)n1c(=O)n(C)c2cnc3cc(F)c(-c4ccc(OCCCN5CCCCC5)nc4)cc3c21 [AZD1390] (first compound max 10 µM, 7x7, partner max 0.3 µM) | combination Emax | 0.46 |
| CC1(C)CCC(CN2CCN(c3ccc(C(=O)NS(=O)(=O)c4ccc(NCC5CCOCC5)c([N+](=O)[O-])c4)c(Oc4cnc5[nH]ccc5c4)c3)CC2)=C(c2ccc(Cl)cc2)C1 [Venetoclax] + C[C@@H]1COCCN1C2=NC(=NC(=C2)C3(CC3)[S@](=N)(=O)C)C4=C5C=CNC5=NC=C4 [AZD6738] (first compound max 1 µM, 7x7, partner max 10 µM) | combination Emax | 0.393 |

###

system: NCI-H1155 (Non-Small Cell Lung Carcinoma); experiment: Bliss excess, mean over the matrix (fraction); higher = more synergy
Experimental endpoint: Bliss excess

| Compound | Experimental endpoint | Val |
| --- | --- | --- |
| COc1cccc(OCCCN)c1-c1cc(Nc2cnc(C#N)cn2)n[nH]1 [Prexasertib] + CCc1c2c(nc3ccc(O)cc13)-c1cc3c(c(=O)n1C2)COC(=O)[C@]3(O)CC [SN-38] (first compound max 1 µM, 7x7, partner max 0.3 µM) | Bliss excess | -0.0161 |
| Cc1c2c(nn1C)CSCc1cc(n(C)n1)CSc1cc(c3ccccc3c1)OCCCc1c(C(=O)O)n(C)c3c-2c(Cl)ccc13 [AZD5991] + C[C@@H]1COCCN1C2=NC(=NC(=C2)C3(CC3)[S@](=N)(=O)C)C4=C5C=CNC5=NC=C4 [AZD6738] (first compound max 1 µM, 7x7, partner max 10 µM) | Bliss excess | 0.0521 |
| COc1nnc2ccc(N3CCC(c4ccc(OCCN5CCN(C)C(=O)[C@H]5C)cc4)CC3)nn12 [AZD5153] + C[C@@H]1COCCN1C2=NC(=NC(=C2)C3(CC3)[S@](=N)(=O)C)C4=C5C=CNC5=NC=C4 [AZD6738] (first compound max 1 µM, 7x7, partner max 10 µM) | Bliss excess | 0.0406 |
| C[C@@H]1COCCN1c1cc(C2([S@](C)(=N)=O)CC2)nc(-c2ccnc3[nH]ccc23)n1 [AZD6738] + O=C(c1cc(Cc2n[nH]c(=O)c3ccccc23)ccc1F)N1CCN(C(=O)C2CC2)CC1 [Olaparib] (first compound max 10 µM, 7x7, partner max 10 µM) | Bliss excess | 0.0374 |

###

test system: FLO-1 (Esophageal Adenocarcinoma); assay: combination Emax (second highest fraction inhibited in the dose matrix, 72 h); higher = more inhibition; extreme values may be limits of the assay
combination Emax reference
Experimental endpoint: combination Emax

| Compound | Val |
| --- | --- |
| CC1(C)CCC(CN2CCN(c3ccc(C(=O)NS(=O)(=O)c4ccc(NCC5CCOCC5)c([N+](=O)[O-])c4)c(Oc4cnc5[nH]ccc5c4)c3)CC2)=C(c2ccc(Cl)cc2)C1 [Venetoclax] + C[C@@H]1COCCN1C2=NC(=NC(=C2)C3(CC3)[S@](=N)(=O)C)C4=C5C=CNC5=NC=C4 [AZD6738] (first compound max 1 µM, 7x7, partner max 10 µM) | 0.559 |
| Cn1cnc2c(F)c(Nc3ccc(Br)cc3Cl)c(C(=O)NOCCO)cc21 [Selumetinib] + CC(C)n1c(=O)n(C)c2cnc3cc(F)c(-c4ccc(OCCCN5CCCCC5)nc4)cc3c21 [AZD1390] (first compound max 10 µM, 7x7, partner max 0.3 µM) | 0.424 |

###

system: LOUCY (T-Lymphoblastic Leukemia); test: Bliss excess, mean over the matrix (fraction); higher = more synergy
# binarize Bliss excess: threshold 0.03 inclusive, high side yes (1), low side no (0)

| Molecule | Class name |
| --- | --- |
| CC1(C)CCC(CN2CCN(c3ccc(C(=O)NS(=O)(=O)c4ccc(NCC5CCOCC5)c([N+](=O)[O-])c4)c(Oc4cnc5[nH]ccc5c4)c3)CC2)=C(c2ccc(Cl)cc2)C1 [Venetoclax] + CS(=O)(=O)CCNCc1ccc(-c2ccc3ncnc(Nc4ccc(OCc5cccc(F)c5)c(Cl)c4)c3c2)o1 [Lapatinib] (first compound max 1 µM, 7x7, partner max 10 µM) | yes (1) |
| C[C@@H](c1ccc2nccn2c1)n1nnc2ncc(-c3cnn(C)c3)nc21 [Savolitinib] + Cc1c2c(nn1C)CSCc1cc(n(C)n1)CSc1cc(c3ccccc3c1)OCCCc1c(C(=O)O)n(C)c3c-2c(Cl)ccc13 [AZD5991] (first compound max 1 µM, 7x7, partner max 1 µM) | yes (1) |
| C=CCn1c(=O)c2cnc(Nc3ccc(N4CCN(C)CC4)cc3)nc2n1-c1cccc(C(C)(C)O)n1 [AZD1775] + CCc1c2c(nc3ccc(O)cc13)-c1cc3c(c(=O)n1C2)COC(=O)[C@]3(O)CC [SN-38] (first compound max 1 µM, partner max 0.3 µM) | no (0) |
| CN(CCO)CC[C@H](CSc1ccccc1)Nc1ccc(S(=O)(=O)NC(=O)c2ccc(N3CCC([C@@H](O)c4ccccc4-c4ccc(Cl)cc4)CC3)cc2)cc1S(=O)(=O)C(F)(F)F [AZD4320] + CN(C)CCCOc1ccc(-c2ccc3ncc4c(c3c2)n(C2CCOCC2)c(=O)n4C)cn1 [AZD0156] (first compound max 1 µM, 7x7, partner max 1 µM) | no (0) |
| Cc1c2c(nn1C)CSCc1cc(n(C)n1)CSc1cc(c3ccccc3c1)OCCCc1c(C(=O)O)n(C)c3c-2c(Cl)ccc13 [AZD5991] + CC1(C)CCC(CN2CCN(c3ccc(C(=O)NS(=O)(=O)c4ccc(NCC5CCOCC5)c([N+](=O)[O-])c4)c(Oc4cnc5[nH]ccc5c4)c3)CC2)=C(c2ccc(Cl)cc2)C1 [Venetoclax] (first compound max 1 µM, 7x7, partner max 1 µM) | yes (1) |
| Cc1c2c(nn1C)CSCc1cc(n(C)n1)CSc1cc(c3ccccc3c1)OCCCc1c(C(=O)O)n(C)c3c-2c(Cl)ccc13 [AZD5991] + Cc1cc2ncnn2cc1Nc1ncc2c(n1)n(C1CCOCC1)c(=O)n2C [AZD7648] (first compound max 1 µM, 7x7, partner max 10 µM) | no (0) |
